The origin of these recorded values is paper PMC10397247.

target under test: T1, 4H429-AA
T1 chain: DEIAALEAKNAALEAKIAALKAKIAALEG
method summary: two-hybrid library CCmax;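 also: natural log of median RNA to DNA barcode read ratio; higher means stronger binding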
condition notes: mean of both orientations
For each entry below, report its interaction score value.
Respond using a number only.

GET /values?readout=interaction score&item= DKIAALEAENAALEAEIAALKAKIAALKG [4H2190-AA]
1.95

Also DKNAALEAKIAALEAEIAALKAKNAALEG [4H3343-AA] ?
-1.22

Try this binder next: DKNAALKAEIAALKAEIAALEAKNAALEG [4H3655-AA]
-1.13

# repeat for DKNAALKAEIAALEAKIAALKAENAALEG [4H3627-AA]
-1.09

For DKIAALKAKIAALKAKNAALKAKNAALKG [4H2944-AA] then?
-1.71

Try the binder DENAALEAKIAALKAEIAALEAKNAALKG [4H1352-AA]
-0.813
